Recorded values, source patent US20200223906A1.

study-system: RSV F protein of subtype A (strain A2) on recombinant mKate-RSV (respiratory syncytial virus subtype A …, UniProt P03420 26-574)
method-summary: cell-based or functional assay
quantity-kind: Neut IC50 subtype A (µg/mL)
Give the value in µg/mL but do not write µg/mL after it.

If you can, please state the reported Neut IC50 subtype A value of ADI-18994 (antibody, V domains shown) VH: QVQLVQSGAEVKKPGASVKVSCKASGYTFTNYGFSWVRQAPGQGLEWMGWILTHNGYTNYAQKFQDRVTMKTDTSTSTVYMELRSLRSVDTAVYYCARIGHVTAVAGAPPDYWGQGTLVTVSS VL: QPVLTQPASVSGYQGQSITISCSGTSSDVGTYNLVSWYQQHPGKAPELMIYEGSKRPSGVSDRFSGSKSGNTASLTISGLQAEDEADYYCCSYVAGSTSVFGGGTKLTVL .
0.047

Could you share which Neut IC50 subtype A value was measured for ADI-18986 (antibody, V domains shown) VH: EVQLLESGGGVVQPGKSLRLSCAASGFTFNTYAIHWVRQAPGKGLEWVAAISYDGSNEYYSNSVKGRFTISRDNSKYTLELQMNSLRPEDTAVYYCARGASYYYVSSDLGYWGQGTLVTVSS VL: QSVVTQPPSVSGAPGQRVTISCTGSSSNIGSGYDVHWYQQLPGTAPKVVIYGNINRPSGVPERFSGSKSGTSASLAITGLQAEDEADYYCQSYDSLSASWVFGGGTKLTVL ?
0.464

Entry under review: ADI-19004 (antibody, V domains shown) VH: QVQLVQSGAEVKKPGASVKVSCKTSGYTFSHFGVTWIRQAPGQGLEWLGWISAYNGNTDSADKLQGRLTMTTDTSTNTAYMELRSLRSDDTAVYYCARDPPASAAAMLDYWGQGTLVTVSS VL: DIQMTQSPLSLAVTLGQPASISCRSSQGLEYTDGNTYLSWFQQRPGQSPRRLIYKVSNRDSGVPDRFSGSGAGTDFTLRISRVEAEDVGVYYCMQGTHGRGISFGPGTKVDIK . Reported Neut IC50 subtype A?
0.02
